Entry source: the supplement of paper PMC12669032

growth AUC values by entry
- Test system: Bacteroides caccae
- protocol-notes: growth AUC relative to DMSO control (median of replicates) (fraction); higher = more growth (less inhibition), active = hit call of the paper
- run-parameters: 20 µM; 24 h
Please reply with the value in numeric form only.

Check out these entries, answers already filled in.
>  <molecule>
c1ccc2cc3c(ccc4ccccc43)cc2c1

>  <tested-target>
Bacteroides caccae

>  <growth AUC>
0.994

$$$$
>  <molecule>
CCN(CC)C(=O)SCc1ccccc1Cl

>  <tested-target>
Bacteroides caccae

>  <growth AUC>
1.02

$$$$
>  <molecule>
CCOC(=O)C(C)Oc1ccc(Oc2cnc3cc(Cl)ccc3n2)cc1 (stereo unspecified)

>  <tested-target>
Bacteroides caccae

>  <growth AUC>
0.978

$$$$
>  <molecule>
COC1CCC2(CC1)NC(=O)C(c1cc(C)ccc1C)C2O (stereo unspecified)

>  <tested-target>
Bacteroides caccae

>  <growth AUC>
0.974

$$$$
>  <molecule>
CCCOC(=O)c1ccc(C(=O)OCCC)nc1

>  <tested-target>
Bacteroides caccae

>  <growth AUC>
1.01

$$$$

Param item = CCCOC(=O)NCCCN(C)C ; retrieve measured growth AUC.
1.01

----------
- Tested on: Fusobacterium nucleatum subsp. animalis
- protocol-notes: growth AUC relative to DMSO control (median of replicates) (fraction); higher = more growth (less inhibition), active = hit call of the paper;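 active = AUC reduced over 20% with Padj below 0.05 in at least 2 of 3 replicates; inactive = otherwise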
- run-parameters: 20 µM; 24 h
Please reply with one of these outcomes: label 1 for active, label 0 for inactive

# example entries with known answers
>  <record-smiles>
CCCOC(=O)c1ccc(O)cc1

>  <tested-target>
Fusobacterium nucleatum subsp. animalis

>  <category>
label 0

$$$$
>  <record-smiles>
CC(C)(c1cc(Br)c(O)c(Br)c1)c1cc(Br)c(O)c(Br)c1

>  <tested-target>
Fusobacterium nucleatum subsp. animalis

>  <category>
label 1

$$$$

Kindly consider the entry below.
Please indicate how the test categorized CCNc1nc(Cl)nc(N(CC)CC)n1 .
label 0

----------
growth AUC values by entry
- System: Fusobacterium nucleatum subsp. animalis
- protocol-notes: growth AUC relative to DMSO control (median of replicates) (fraction); higher = more growth (less inhibition), active = hit call of the paper
- run-parameters: 20 µM; 24 h
Please reply with the value in numeric form only.

Check out these entries, answers already filled in.
>  <molecule>
COC(=O)Nc1ccc(Cl)c(Cl)c1

>  <tested-target>
Fusobacterium nucleatum subsp. animalis

>  <growth AUC>
0.926

$$$$
>  <molecule>
O=C(Nc1ccc(Cl)cc1C(O)c1ccccc1)c1ccncc1 (centres undefined)

>  <tested-target>
Fusobacterium nucleatum subsp. animalis

>  <growth AUC>
1.08

$$$$
>  <molecule>
CCCCC(CC)COC(=O)COc1cc(Cl)c(Cl)cc1Cl (centres undefined)

>  <tested-target>
Fusobacterium nucleatum subsp. animalis

>  <growth AUC>
0.9

$$$$

Next up:
Identify the measured growth AUC of NC(Cn1cncn1)C(=O)O (centres undefined) for Fusobacterium nucleatum subsp. animalis.
0.94

----------
growth AUC values by entry
- System: Escherichia coli ED1a
- protocol-notes: growth AUC relative to DMSO control (median of replicates) (fraction); higher = more growth (less inhibition), active = hit call of the paper
- run-parameters: 20 µM; 24 h
Please reply with the value in numeric form only.

Check out these entries, answers already filled in.
>  <record-smiles>
CC(C)COC(=O)COc1cc(Cl)c(Cl)cc1Cl

>  <growth AUC>
1.01

$$$$
>  <record-smiles>
CC(C)CCCCCCc1ccc(O)cc1

>  <growth AUC>
1.02

$$$$
>  <record-smiles>
Oc1cccc2ccccc12

>  <growth AUC>
0.994

$$$$
>  <record-smiles>
CCc1nc2ncnn2c(N)c1CCCCCC(=O)O.Cl

>  <growth AUC>
1.02

$$$$

Param item = N#Cc1c(N)nc(NC2CC2)nc1N ; retrieve measured growth AUC.
0.991

Param item: CNC(=O)Nc1nc2ccccc2s1
0.999
